- method.notes: Study 1 Part 1: ascending single-dose PK in healthy men
- Type: in vivo, human
- condition.summary: male, human, plasma, oral, 15 mg, 15 mg single dose, N = 6, read-out: Vss/F, Geometric mean (CV)
readout.kind: Vd/F (L)
Numbers only, in L.

The reported value for CC(C)(NC(=O)O[C@@H]1CN2CCC1CC2)c1csc(-c2ccc(F)cc2)n1 [Compound 2] in terms of Vd/F is 233

----------
- method.notes: Study 2: ascending repeated-dose PK in healthy adults
- Type: in vivo, human
- condition.summary: both sexes, human, plasma, oral, 20 mg, Day 14, 20 mg once daily, N = 9; read-out: t1/2, Geometric mean (converted)
readout.kind: half-life (h)
Numbers only, in h.

Memo: CC(C)(NC(=O)O[C@@H]1CN2CCC1CC2)c1csc(-c2ccc(F)cc2)n1 , reported half-life: 34.5

----------
- method.notes: Study 1 Part 1: ascending single-dose PK in healthy men
- Assay type: in vivo, human
- condition.summary: male, human, plasma, oral, 25 mg, 25 mg single dose, N = 6, read-out: t1/2, Geometric mean (CV) (converted)
- From the text: Study 1 was a 2-part single-center trial in healthy adult male volunteers. Part 1 of the study enrolled and randomized 55 healthy men (placebo, n=14; 2-, 5-, 15, 25-, 50, and 100-mg doses, n=6 each; 150-mg dose, n=5). Eight healthy men participated in Part 2. […]
readout.kind: half-life (h)
One number for each entry, in h.

// CC(C)(NC(=O)O[C@@H]1CN2CCC1CC2)c1csc(-c2ccc(F)cc2)n1 [Compound 2] : half-life value = 29.8

----------
- method.notes: Study 1 Part 1: ascending single-dose PK in healthy men
- Assay type: in vivo, human
- condition.summary: male, human, plasma, oral, 5 mg, 5 mg single dose, N = 6, read-out: t1/2, Mean (SD) (converted)
readout.kind: half-life
Field: value (include unit after the number)

Reported half-life ( CC(C)(NC(=O)O[C@@H]1CN2CCC1CC2)c1csc(-c2ccc(F)cc2)n1 ) = 33.3 h

----------
- method.notes: Study 1 Part 1: ascending single-dose PK in healthy men
- Type: in vivo, human
- condition.summary: male, human, plasma, oral, 5 mg, 5 mg single dose, N = 6, read-out: t1/2, Geometric mean (CV) (converted)
readout.kind: half-life (h)
Give bare numbers, in h.

Record CC(C)(NC(=O)O[C@@H]1CN2CCC1CC2)c1csc(-c2ccc(F)cc2)n1 . Reported half-life: 32.5

----------
- method.notes: Study 1 Part 1: ascending single-dose PK in healthy men
- Format: in vivo, human
- condition.summary: male, human, plasma, oral, 150 mg, 150 mg single dose, N = 5, read-out: AUCinf, Geometric mean (CV)
- Description: Study 1 was a 2-part single-center trial in healthy adult male volunteers. Part 1 of the study enrolled and randomized 55 healthy men (placebo, n=14; 2-, 5-, 15, 25-, 50, and 100-mg doses, n=6 each; 150-mg dose, n=5). Eight healthy men participated in Part 2. […]
readout.kind: AUC(0-inf) (ng·h/mL)
Give bare numbers, in ng·h/mL.

Item: CC(C)(NC(=O)O[C@@H]1CN2CCC1CC2)c1csc(-c2ccc(F)cc2)n1 [Compound 2] | AUC(0-inf): 19900

----------
- measured.on: glucosylceramide synthase (Homo sapiens (Human), UniProt Q16739)
- Sequence (Q16739 whole entry): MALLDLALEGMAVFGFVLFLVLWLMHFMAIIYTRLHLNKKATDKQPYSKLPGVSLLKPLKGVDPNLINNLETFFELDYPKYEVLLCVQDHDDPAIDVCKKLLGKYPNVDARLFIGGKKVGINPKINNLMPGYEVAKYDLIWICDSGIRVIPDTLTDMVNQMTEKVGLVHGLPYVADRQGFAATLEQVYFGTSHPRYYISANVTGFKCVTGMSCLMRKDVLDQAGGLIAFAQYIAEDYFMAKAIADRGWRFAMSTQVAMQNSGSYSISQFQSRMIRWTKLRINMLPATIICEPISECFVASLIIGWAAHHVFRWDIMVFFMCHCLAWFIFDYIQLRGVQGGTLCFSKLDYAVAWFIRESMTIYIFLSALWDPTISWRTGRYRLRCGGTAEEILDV
readout.kind: pIC50
Give bare numbers, as −log10 of the molar value.

Answered cases to consult:
compound	pIC50
COCCOc1ccc(-c2ccc(C(C)(C)NC(=O)O[C@@H]3CN4CCC3CC4)cc2)cc1	5.38
CC(C)(NC(=O)OC1CN2CCC1CC2)c1cccc(-c2ccc(F)cc2)c1 (stereo not shown)	5.72
O=C(NC1(c2ccc(-c3ccc(F)cc3F)cc2)CC1)O[C@@H]1CN2CCC1CC2	6.00

Now for another entry.
Documented pIC50 of CC(C)(NC(=O)OC1CN2CCC1CC2)c1ccc(-c2ccc(OCC#N)cc2)cc1 (stereo not shown) : 5.59
